Molecular target: T1, monomeric soluble human PD1-Avi-His (human, UniProt Q15116 25-170)
T1 construct: extracellular domain; not shown: Avi tag and His tag at the C-terminus
T1 sequence (Q15116 25-170): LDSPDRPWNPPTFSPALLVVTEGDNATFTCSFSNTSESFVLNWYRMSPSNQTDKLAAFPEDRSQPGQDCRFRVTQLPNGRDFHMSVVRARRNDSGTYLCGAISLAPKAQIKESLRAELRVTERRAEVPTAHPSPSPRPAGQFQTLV
Test: SPR (BIACORE T200), antibody captured on anti-human IgG, monomeric PD1-Avi-His flowed, 1:1 fit
recorded-metric: koff (s⁻¹)
Field format: number, assumed s⁻¹, no unit text.

stdin: Sample APE2058 (antibody, human IgG1, V domains shown, expressed from HEK 293 cells as human IgG1; also called anti-PD-1) VH: EVQLLESGGGLVQPGGSLRLSCAASGFTFSSYDMSWVRQAPGKGLEWVSTISGGGSYTYYQDSVKGRFTISRDNSKNTLYLQMNSLRAEDTAVYYCASPYYAMDYWGQGTTVTVSS VL: DIQLTQSPSFLSAYVGDRVTITCKASQDVGTAVAWYQQKPGKAPKLLIYWASTLHTGVPSRFSGSGSGTEFTLTISSLQPEDFATYYCQHYSSYPWTFGQGTKLEIK — what was its koff?
stdout: 0.00064

stdin: // query: APE1922 (antibody, human IgG1, V domains shown, expressed from HEK 293 cells as human IgG1) VH: EVQLLESGGGLVQPGGSLRLSCAASGFTFSSYTMSWVRQAPGKGLEWVSVISSGGDSAYYPDSVQGRFTISRDNSKNTLYLQMNSLRAEDTAVYYCAKEHYGTSHFAYWGQGTLVTVSS VL: EIVLTQSPATLSLSPGERATLSCRASESVDNFGISFMSWYQQKPGQAPRLLIYAASNPGSGIPARFSGSGSGTDFTLTISSLEPEDFAVYYCQQSKEVPYTFGQGTKLEIK
stdout: 0.0018

stdin: // query: APE1950 (antibody, human IgG1, V domains shown, expressed from HEK 293 cells as human IgG1) VH: EVQLLESGGGLVQPGGSLRLSCAASGFTFSSYTMSWVRQAPGKGLEWVSVISSGGDSTYYPDSVQGRFTISRDNSKNTLYLQMNSLRAEDTAVYYCAKEHYGTSHFAYWGQGTLVTVSS VL: EIVLTQSPATLSLSPGERATLSCRASESVDNFGISFMSWYQQKPGQAPRLLIYAASNPGSGIPARFSGSGSGTDFTLTISSLEPEDFAVYYCQQSKEVPYTFGQGTKLEIK
stdout: 0.0025

Each recorded value in this set is attributed to patent US20180051082A1.
